Hello, the source for this data is paper PMC9661475, in case you need it.

assay: Pharmacokinetic study in SD rats; type: in vivo; conditions: male, rat, plasma, iv, 1 mg/kg
quantityName: clearance at 24 h (mL/min/kg)
API: value field is a number in mL/min/kg; no unit string.

Inquiry: State the recorded clearance at 24 h for this entry: Nc1ccc(-c2ccc3ncc(-c4noc(C(F)(F)F)n4)cc3c2)cc1
Reply text: 64

Inquiry: Also, CCc1nc(-c2cnc3ccc(-c4ccc(N)cc4)cc3c2)no1.Cl [Compound 21·HCl] please.
Reply text: 106

----------
experiment: Liver microsome stability assay, dog; format: in vitro ADME; details: beagle, liver microsomes
quantityName: CLint scaled at 1 h, 1 µM (mL/min/kg)
API: value field is a number in mL/min/kg; no unit string.

Inquiry: State the recorded CLint scaled at 1 h, 1 µM for this entry: Nc1ccc(-c2ccc3ncc(-c4noc(C(F)(F)F)n4)cc3c2)cc1 [Compound 19]
Reply text: 116
